Data credit: patent US12459912B2

Target: CCKAR (Cholecystokinin Receptor A) (Homo sapiens, UniProt P32238)
Experiment: CCKAR/Calcium Flux
pEC50: −log10 of the molar value.
property.label: pEC50

q: // lookup pEC50 for CNC(C)Cc1ccc2ccsc2c1 (stereo not shown) [drawing 522]
a: < 5.00

* * *

Target: DRD1 (Dopamine Receptor D1) (Homo sapiens, UniProt P21728)
Sequence (P21728 whole entry): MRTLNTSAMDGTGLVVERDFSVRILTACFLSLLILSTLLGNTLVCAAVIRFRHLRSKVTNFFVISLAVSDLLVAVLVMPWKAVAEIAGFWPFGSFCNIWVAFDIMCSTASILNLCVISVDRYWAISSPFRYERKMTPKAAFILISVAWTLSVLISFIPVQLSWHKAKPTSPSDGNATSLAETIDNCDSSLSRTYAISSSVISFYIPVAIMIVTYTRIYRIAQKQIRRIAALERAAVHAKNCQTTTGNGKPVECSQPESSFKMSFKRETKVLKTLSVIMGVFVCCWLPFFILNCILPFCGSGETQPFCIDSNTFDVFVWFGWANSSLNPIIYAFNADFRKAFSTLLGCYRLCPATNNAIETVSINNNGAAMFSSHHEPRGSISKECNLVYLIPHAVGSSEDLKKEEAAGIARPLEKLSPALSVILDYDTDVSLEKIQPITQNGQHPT
Test: DRD1/cAMP
pEC50: −log10 of the molar value.
property.label: pEC50

q: Give the measured pEC50 of CNC(C)Cc1ccc2ccsc2c1 (stereo not shown) [drawing 522] .
a: < 5.00

* * *

Molecular target: HRH1 (Histamine Receptor H1) (Homo sapiens, UniProt P35367)
Assay: cell-based
property.label: EC50

q: # query: EC50 of entry CNC(C)Cc1ccc2ccsc2c1 (stereo not shown) [drawing 522]
a: > 10 µM

* * *

Target: OPRK1 (Opioid Receptor Kappa 1) (Homo sapiens, UniProt P41145)
Experiment: OPRK1/cAMP
property.label: EC50

q: // returns reported EC50 for input CNC(C)Cc1ccc2ccsc2c1 (stereo not shown) [drawing 522]
a: > 10 µM

* * *

Molecular target: KvLQT1/minK (Homo sapiens)
Sequence (P51787 whole entry): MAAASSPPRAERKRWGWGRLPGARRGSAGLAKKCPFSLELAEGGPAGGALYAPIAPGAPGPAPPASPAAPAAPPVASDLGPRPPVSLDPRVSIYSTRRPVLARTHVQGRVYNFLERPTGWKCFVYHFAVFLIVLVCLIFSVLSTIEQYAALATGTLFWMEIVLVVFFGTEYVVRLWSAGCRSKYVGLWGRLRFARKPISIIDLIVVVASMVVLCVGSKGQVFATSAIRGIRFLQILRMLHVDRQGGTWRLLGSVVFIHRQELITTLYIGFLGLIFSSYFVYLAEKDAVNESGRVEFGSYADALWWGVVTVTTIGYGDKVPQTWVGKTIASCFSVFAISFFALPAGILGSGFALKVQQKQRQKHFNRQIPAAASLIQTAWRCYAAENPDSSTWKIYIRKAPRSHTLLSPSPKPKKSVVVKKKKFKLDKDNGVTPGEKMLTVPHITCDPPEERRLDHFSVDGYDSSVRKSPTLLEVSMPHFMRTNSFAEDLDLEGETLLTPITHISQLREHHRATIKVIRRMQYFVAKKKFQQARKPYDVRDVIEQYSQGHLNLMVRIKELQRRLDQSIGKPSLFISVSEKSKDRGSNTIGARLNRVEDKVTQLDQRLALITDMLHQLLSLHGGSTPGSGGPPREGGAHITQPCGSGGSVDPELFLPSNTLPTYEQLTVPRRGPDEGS
Experiment: KvLQT1/minK/Ion Channel
pEC50: −log10 of the molar value.
property.label: pEC50

q: Item: CNC(C)Cc1ccc2ccsc2c1 (stereo not shown) [drawing 522] Test system: KvLQT1/minK (Homo sapiens) Read-out: pEC50 Value: ?
a: < 5.00

* * *

Target: 5-Hydroxytryptamine (Serotonin) Receptor 2A (5-HT2A) (Homo sapiens, UniProt P28223)
Assay: 5-HT2A/Calcium Flux
Format: cell-based
Conditions: EC50 (μM), antagonist
property.label: EC50 (µM)
Write it as a number; the unit µM goes unstated.

q: GET /values?readout=EC50&item= CNC(C)Cc1ccc2ccsc2c1 (stereo not shown) [drawing 522]
a: 1.72

* * *

Target: human SERT (Homo sapiens, UniProt P31645)
Assay: hSERT [^3H]serotonin release assay (CHO cells)
Below: a set of entries, each annotated with reported EC50.
Number first, unit second.

CNC(C)Cc1ccc2ccsc2c1.Cl (stereo not shown) [Compound 6-MAPBT, hydrochloride]	57 nM
CCNC(C)Cc1ccc2sccc2c1.Cl (stereo not shown) [Compound 5-EAPBT, hydrochloride]	53 nM
CNC(C)Cc1ccc2sccc2c1.Cl (stereo not shown) [Compound 5-MAPBT, hydrochloride]	23 nM

q: Value lookup for EC50; key = CNC(C)C(=O)c1ccc2sccc2c1.Cl (stereo not shown) [Bk-5-MAPBT, hydrochloride]
a: 101 nM

* * *

Biological target: hERG (Homo sapiens, UniProt Q12809)
Assay: hERG/Ion Channel
property.label: EC50

q: Reported EC50 for CNC(C)Cc1ccc2ccsc2c1 (stereo not shown) [drawing 522] : what is it?
a: > 10 µM

* * *

Target: 5-Hydroxytryptamine (Serotonin) Receptor 3A (5-HT3A) (Homo sapiens)
Construct: expressed in transfected cells
Experiment: 5-HT3A/Ion Channel
Assay type: cell-based
Details: EC50 (μM), blocker
property.label: EC50 (µM)
Please reply with the bare figure in µM and do not write the unit itself.

q: If you can, please state the reported EC50 value of CNC(C)Cc1ccc2ccsc2c1 (stereo not shown) [drawing 522] .
a: 5.18

* * *

Target: human DAT (Homo sapiens, UniProt Q01959)
Construct: expressed in transfected cells
Test: hDAT [^3H]dopamine release assay (CHO cells)
Assay type: cell-based
Details: (DAT EC50)^−1/(SERT EC50)^−1; larger numbers indicate higher DAT selectivity
property.label: DAT/SERT ratio

Examples with answers:
CCNC(C)Cc1ccc2sccc2c1.Cl (stereo not shown) [Compound 5-EAPBT]	0.54
CNC(C)Cc1ccc2sccc2c1.Cl (stereo not shown) [Compound 5-MAPBT]	0.18
CNC(C)Cc1ccc2ccsc2c1.Cl (stereo not shown) [Compound 6-MAPBT]	0.80

q: DAT/SERT ratio lookup needed for CNC(C)C(=O)c1ccc2sccc2c1.Cl (stereo not shown) [Bk-5-MAPBT] , thanks.
a: 0.52

* * *

Target: 5-Hydroxytryptamine (Serotonin) Receptor 3A (5-HT3A) (Homo sapiens, UniProt P46098)
Construct: expressed in transfected cells
Sequence (P46098 24-478): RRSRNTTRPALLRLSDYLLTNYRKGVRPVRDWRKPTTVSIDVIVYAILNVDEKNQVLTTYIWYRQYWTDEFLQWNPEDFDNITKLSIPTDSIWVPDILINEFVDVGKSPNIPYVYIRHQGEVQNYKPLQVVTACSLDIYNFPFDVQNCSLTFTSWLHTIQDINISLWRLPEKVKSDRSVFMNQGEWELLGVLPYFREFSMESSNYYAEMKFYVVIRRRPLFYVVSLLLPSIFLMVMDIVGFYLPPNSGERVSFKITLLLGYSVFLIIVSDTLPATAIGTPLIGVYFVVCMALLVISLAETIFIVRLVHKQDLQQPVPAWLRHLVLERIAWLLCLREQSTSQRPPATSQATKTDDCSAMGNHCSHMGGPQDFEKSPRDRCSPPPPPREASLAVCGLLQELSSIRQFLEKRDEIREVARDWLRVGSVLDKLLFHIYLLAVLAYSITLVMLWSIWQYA
Assay: 5-HT3A/Ion Channel
Format: cell-based
Conditions: EC50 (μM), opener
property.label: EC50

q: Given the entry CNC(C)Cc1ccc2ccsc2c1 (stereo not shown) [drawing 522] , report its measured EC50.
a: > 10 µM

* * *

Target: NMDAR (1A/2B) (N-methyl-D-aspartate (NMDA) Glutamate Receptor 1A/2B) (Homo sapiens, UniProt Q05586+Q13224)
Assay: NMDAR (1A/2B)/Ion Channel
pEC50: −log10 of the molar value.
property.label: pEC50

q: Quick check: pEC50 of CNC(C)Cc1ccc2ccsc2c1 (stereo not shown) [drawing 522] ?
a: < 5.00

* * *

Biological target: GR (Nuclear Hormone Glucocorticoid Receptor) (Homo sapiens, UniProt P04150)
Experiment: GR/NHR Protein Interaction
property.label: EC50

q: Look at this molecule and give its reported EC50. CNC(C)Cc1ccc2ccsc2c1 (stereo not shown) [drawing 522]
a: > 10 µM

* * *

Molecular target: COX1 (Cyclooxygenase 1) (Homo sapiens)
Test: COX1/Enzymatic
pEC50: −log10 of the molar value.
property.label: pEC50

q: What value of pEC50 has been recorded for this entry: CNC(C)Cc1ccc2ccsc2c1 (stereo not shown) [drawing 522]
a: < 5.00

* * *

Target: ADRA2A (Adrenergic Receptor on α2A) (Homo sapiens, UniProt P08913)
Test: ADRA2A/cAMP
pEC50: −log10 of the molar value.
property.label: pEC50

q: # lookup: pEC50 of CNC(C)Cc1ccc2ccsc2c1 (stereo not shown) [drawing 522]
a: < 5.00

* * *

Target: NAV1.5 (tetrodotoxin-resistant voltage-gated sodium channel) (Homo sapiens)
Experiment: cell-based
pEC50: −log10 of the molar value.
property.label: pEC50

q: Tell me the measured pEC50 of CNC(C)Cc1ccc2ccsc2c1 (stereo not shown) [drawing 522] , please.
a: < 5.00

* * *

Target: INSR (Insulin Receptor (tyrosine kinase)) (Homo sapiens, UniProt P06213)
Sequence (P06213 28-1382): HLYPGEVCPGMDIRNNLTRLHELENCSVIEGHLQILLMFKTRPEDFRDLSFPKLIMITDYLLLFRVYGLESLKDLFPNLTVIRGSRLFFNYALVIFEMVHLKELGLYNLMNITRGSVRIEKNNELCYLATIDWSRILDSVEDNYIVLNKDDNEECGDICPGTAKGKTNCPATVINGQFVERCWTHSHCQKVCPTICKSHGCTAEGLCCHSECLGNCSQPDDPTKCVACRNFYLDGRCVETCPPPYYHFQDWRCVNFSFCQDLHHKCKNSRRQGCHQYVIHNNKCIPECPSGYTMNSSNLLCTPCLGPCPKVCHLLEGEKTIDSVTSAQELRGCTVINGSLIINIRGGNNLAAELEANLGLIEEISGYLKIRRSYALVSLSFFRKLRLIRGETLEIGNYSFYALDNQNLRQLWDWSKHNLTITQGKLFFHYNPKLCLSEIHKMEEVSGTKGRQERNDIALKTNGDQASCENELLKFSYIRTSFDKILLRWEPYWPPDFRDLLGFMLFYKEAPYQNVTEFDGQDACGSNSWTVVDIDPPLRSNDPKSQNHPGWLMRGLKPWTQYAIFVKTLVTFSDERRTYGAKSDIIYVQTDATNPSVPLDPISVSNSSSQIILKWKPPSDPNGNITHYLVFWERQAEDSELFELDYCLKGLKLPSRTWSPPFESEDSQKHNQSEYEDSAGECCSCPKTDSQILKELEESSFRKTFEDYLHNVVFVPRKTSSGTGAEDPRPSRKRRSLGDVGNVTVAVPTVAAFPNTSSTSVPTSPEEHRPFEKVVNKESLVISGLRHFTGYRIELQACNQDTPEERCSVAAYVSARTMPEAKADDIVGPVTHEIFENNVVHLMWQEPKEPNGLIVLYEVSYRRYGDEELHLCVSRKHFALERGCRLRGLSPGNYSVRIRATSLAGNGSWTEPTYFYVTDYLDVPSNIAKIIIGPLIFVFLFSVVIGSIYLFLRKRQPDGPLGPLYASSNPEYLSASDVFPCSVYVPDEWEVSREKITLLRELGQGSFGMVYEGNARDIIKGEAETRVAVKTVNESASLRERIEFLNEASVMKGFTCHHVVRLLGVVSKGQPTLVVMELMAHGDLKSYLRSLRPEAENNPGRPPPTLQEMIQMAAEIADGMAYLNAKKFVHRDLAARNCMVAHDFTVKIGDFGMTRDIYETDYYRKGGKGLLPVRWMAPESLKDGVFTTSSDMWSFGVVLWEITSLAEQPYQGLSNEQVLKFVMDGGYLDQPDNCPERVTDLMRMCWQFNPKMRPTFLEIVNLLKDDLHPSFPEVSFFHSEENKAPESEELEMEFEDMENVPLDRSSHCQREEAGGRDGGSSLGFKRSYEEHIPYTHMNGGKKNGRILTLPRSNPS
Assay: INSR/Binding (KINOMEscan)
property.label: EC50

q: Look up EC50: CNC(C)Cc1ccc2ccsc2c1 (stereo not shown) [drawing 522]
a: > 10 µM

* * *

Target: CNR2 (Cannabinoid Receptor 2) (Homo sapiens, UniProt P34972)
Sequence (P34972 whole entry): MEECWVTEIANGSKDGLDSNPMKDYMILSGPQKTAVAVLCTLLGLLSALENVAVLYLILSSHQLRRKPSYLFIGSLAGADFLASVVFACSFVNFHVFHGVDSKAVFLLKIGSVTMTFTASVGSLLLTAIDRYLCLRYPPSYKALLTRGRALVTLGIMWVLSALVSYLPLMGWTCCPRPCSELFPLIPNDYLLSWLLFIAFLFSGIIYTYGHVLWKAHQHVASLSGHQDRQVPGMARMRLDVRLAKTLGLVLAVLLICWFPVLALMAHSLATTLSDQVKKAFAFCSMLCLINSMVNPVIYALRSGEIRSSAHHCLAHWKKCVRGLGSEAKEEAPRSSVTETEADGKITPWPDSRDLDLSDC
Assay: CNR2/cAMP
pEC50: −log10 of the molar value.
property.label: pEC50

q: Quick one: pEC50 for CNC(C)Cc1ccc2ccsc2c1 (stereo not shown) [drawing 522] ?
a: < 5.00

* * *

Biological target: OPRD1 (Opioid Receptor Delta 1) (Homo sapiens)
Test: OPRD1/cAMP
Assay type: cell-based
property.label: EC50

q: Tell me the measured EC50 of CNC(C)Cc1ccc2ccsc2c1 (stereo not shown) [drawing 522] , please.
a: > 10 µM

* * *

Molecular target: DRD2S (Dopamine Receptor D2) (Homo sapiens)
Assay: DRD2S/cAMP
pEC50: −log10 of the molar value.
property.label: pEC50

q: What does the data say about its pEC50? Entry: CNC(C)Cc1ccc2ccsc2c1 (stereo not shown) [drawing 522]
a: < 5.00

* * *

Biological target: DAT (Dopamine transporter) (Homo sapiens)
Sequence (Q01959 whole entry): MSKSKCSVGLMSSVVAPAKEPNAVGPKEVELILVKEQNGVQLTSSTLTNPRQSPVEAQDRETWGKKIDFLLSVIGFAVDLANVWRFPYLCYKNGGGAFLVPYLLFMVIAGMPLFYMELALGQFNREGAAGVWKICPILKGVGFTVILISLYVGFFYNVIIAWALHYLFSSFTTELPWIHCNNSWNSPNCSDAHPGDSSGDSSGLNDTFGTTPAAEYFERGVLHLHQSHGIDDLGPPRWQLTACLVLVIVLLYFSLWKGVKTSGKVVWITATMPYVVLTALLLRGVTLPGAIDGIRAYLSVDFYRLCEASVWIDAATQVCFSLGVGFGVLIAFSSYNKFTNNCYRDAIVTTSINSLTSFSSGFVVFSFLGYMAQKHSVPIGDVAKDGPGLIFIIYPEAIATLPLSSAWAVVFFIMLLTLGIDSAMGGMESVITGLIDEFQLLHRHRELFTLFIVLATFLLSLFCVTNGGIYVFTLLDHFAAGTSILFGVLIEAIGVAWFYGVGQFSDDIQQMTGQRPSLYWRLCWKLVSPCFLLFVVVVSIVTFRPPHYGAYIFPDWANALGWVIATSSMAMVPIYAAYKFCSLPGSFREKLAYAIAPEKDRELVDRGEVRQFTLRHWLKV
Experiment: DAT/Transporter (fluorescent substrate uptake)
property.label: pEC50
By convention, pEC50 is the negative base-10 log of a molar concentration.

q: Requested read-out pEC50, target or system DAT (Dopamine transporter) (Homo sapiens), entry CNC(C)Cc1ccc2ccsc2c1 (stereo not shown) [drawing 522]
a: 6.49

* * *

Target: 5-Hydroxytryptamine (Serotonin) Receptor 1A (5-HT1A) (Homo sapiens)
Experiment: 5-HT1A/cAMP
pEC50: −log10 of the molar value.
property.label: pEC50

q: Field: pEC50 (5-Hydroxytryptamine (Serotonin) Receptor 1A (5-HT1A) (Homo sapiens)). Entry: CNC(C)Cc1ccc2ccsc2c1 (stereo not shown) [drawing 522]
a: < 5.00

* * *

Molecular target: UniProtKB Q14432
Sequence (Q14432 whole entry): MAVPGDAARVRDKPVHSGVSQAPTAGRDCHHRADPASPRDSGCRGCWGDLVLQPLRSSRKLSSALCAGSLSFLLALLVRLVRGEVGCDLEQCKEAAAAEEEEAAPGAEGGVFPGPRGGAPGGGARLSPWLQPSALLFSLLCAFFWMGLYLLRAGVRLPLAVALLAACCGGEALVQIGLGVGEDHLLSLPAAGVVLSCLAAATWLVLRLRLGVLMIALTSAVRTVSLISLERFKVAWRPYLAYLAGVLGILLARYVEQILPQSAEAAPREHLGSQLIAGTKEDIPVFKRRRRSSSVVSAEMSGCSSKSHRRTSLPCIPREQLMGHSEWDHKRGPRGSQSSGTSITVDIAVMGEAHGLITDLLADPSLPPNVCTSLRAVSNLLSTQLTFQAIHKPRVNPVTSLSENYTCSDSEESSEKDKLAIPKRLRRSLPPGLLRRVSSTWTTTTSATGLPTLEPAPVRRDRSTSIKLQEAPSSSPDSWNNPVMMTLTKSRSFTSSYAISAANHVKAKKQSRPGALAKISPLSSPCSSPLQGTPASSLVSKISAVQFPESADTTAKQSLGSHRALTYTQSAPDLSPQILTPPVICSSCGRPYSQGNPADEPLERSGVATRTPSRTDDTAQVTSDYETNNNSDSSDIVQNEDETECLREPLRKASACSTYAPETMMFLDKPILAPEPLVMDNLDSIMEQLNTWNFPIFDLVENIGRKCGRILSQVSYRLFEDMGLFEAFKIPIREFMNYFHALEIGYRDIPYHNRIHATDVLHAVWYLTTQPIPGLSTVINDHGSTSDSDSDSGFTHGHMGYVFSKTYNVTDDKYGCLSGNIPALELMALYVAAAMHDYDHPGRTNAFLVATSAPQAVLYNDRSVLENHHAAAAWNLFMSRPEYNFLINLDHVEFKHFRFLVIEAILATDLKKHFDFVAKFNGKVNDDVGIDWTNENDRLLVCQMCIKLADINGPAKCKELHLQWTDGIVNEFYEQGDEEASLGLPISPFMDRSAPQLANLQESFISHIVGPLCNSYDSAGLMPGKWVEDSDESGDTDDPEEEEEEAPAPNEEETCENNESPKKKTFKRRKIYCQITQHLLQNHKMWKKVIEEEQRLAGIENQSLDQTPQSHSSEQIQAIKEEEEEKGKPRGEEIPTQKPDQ
Assay: PDE3A/Enzymatic
property.label: EC50

q: Which value of EC50 has been reported for CNC(C)Cc1ccc2ccsc2c1 (stereo not shown) [drawing 522] in the records?
a: > 10 µM

* * *

Biological target: 5-Hydroxytryptamine (Serotonin) Receptor 2A (5-HT2A) (Homo sapiens)
Assay: 5-HT2A/Calcium Flux
Type: cell-based
Settings: EC50 (μM), agonist
property.label: EC50 (µM)
The response must be a number in µM with no trailing unit.

q: What measured EC50 goes with CNC(C)Cc1ccc2ccsc2c1 (stereo not shown) [drawing 522] ?
a: 0.959

* * *

Target: 5-Hydroxytryptamine (Serotonin) Receptor 1B (5-HT1B) (Homo sapiens, UniProt P28222)
Assay: 5-HT1B/cAMP
Format: cell-based
Conditions: EC50 (μM), agonist
property.label: EC50 (µM)
Supply the numeric figure in µM, leaving out any unit text.

q: Form: Entry = CNC(C)Cc1ccc2ccsc2c1 (stereo not shown) [drawing 522] | System = 5-Hydroxytryptamine (Serotonin) Receptor 1B (5-HT1B) (Homo sapiens, UniProt P28222) | EC50 = ____
a: 0.024
